- assay_explanation: self-splicing fitness, log relative to wild type (ln ratio); higher = more splicing; Tetrahymena group I intron in knt gene, E. coli kanamycin selection, DiMSum; sequences stand for … in CUCUCU…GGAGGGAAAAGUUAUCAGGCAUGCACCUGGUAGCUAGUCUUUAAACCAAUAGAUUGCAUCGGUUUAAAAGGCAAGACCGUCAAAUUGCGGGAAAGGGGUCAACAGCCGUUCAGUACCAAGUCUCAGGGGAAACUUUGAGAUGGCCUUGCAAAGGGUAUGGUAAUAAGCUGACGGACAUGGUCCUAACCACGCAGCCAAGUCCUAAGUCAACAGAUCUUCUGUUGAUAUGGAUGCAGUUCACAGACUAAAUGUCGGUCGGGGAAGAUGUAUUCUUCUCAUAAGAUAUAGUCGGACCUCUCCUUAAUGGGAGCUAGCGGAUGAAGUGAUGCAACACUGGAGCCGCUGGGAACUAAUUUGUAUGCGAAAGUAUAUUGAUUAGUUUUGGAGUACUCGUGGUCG;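 also: selection with 25 µg/mL kanamycin versus none on LB agar overnight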
- measurement_parameters: 37 °C
Reported self-splicing fitness (ln) values for a set of sequences

Consider the reported self-splicing fitness (ln) for these sequences:
AUUGAGCAAUAUUACGACAG -2.18
CGACAGCAAUAUUACGAUAG -0.728
AUGCAGCAAUAUUACGCAGC -1.91

Exercise: Fill in the blank: the reported self-splicing fitness (ln) of CCAUAGCAAUAUUACGCGAC is ____.
Solution: -2.9

Exercise: self-splicing fitness (ln) for CCCGAGCAAUAUUACGAAUG ?
Solution: -1.41

Exercise: Need self-splicing fitness (ln), item UUUUAGCAAUAUUACGUCCU
Solution: 0.494

Exercise: Requested field: self-splicing fitness (ln). Item: AAGUAGCAAUAUUACGGACG
Solution: -1.74

Exercise: // returns reported self-splicing fitness (ln) for input CUUCAGCAAUAUUACGACGU
Solution: -2.12

Exercise: So what's the measured self-splicing fitness (ln) for this one? GCUUAGCAAUAUUACGUAAC
Solution: -0.62

Exercise: Suppose we examine the sequence AAUGAGCAAUAUUACGGCAA ; what self-splicing fitness (ln) value has been reported?
Solution: -1.85

Exercise: Would you mind telling me what self-splicing fitness (ln) value was observed for GCAAAGCAAUAUUACGGCUC ?
Solution: 0.305

Exercise: Suppose we examine the sequence GUAAAGCAAUAUUACGGGUU ; what self-splicing fitness (ln) value has been reported?
Solution: -1.86

----------
- assay_explanation: self-splicing fitness, log relative to wild type (ln ratio); higher = more splicing; Tetrahymena group I intron in knt gene, E. coli kanamycin selection, DiMSum; sequences stand for … in CUCUCU…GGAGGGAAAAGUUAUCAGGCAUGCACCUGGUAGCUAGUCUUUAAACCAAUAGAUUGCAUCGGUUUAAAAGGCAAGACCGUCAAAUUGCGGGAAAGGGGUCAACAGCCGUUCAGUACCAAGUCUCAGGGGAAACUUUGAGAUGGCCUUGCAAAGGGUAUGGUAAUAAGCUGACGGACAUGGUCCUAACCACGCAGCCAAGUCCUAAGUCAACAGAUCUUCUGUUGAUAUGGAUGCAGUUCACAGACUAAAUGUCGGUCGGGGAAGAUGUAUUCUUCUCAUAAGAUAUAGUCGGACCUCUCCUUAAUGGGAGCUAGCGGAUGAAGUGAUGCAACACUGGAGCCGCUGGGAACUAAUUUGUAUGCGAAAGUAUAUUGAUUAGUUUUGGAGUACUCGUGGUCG
- measurement_parameters: 37 °C
assay_endpoint: self-splicing fitness (ln)
Returns: the value as a bare number; no unit string appended.

Take a look at these entries with their results.
CGCAAGCAAUAUUACGCCCA -0.291
GAUCAGCAAUAUUACGACAU 0.102
GCCGAGCAAUAUUACGCUCA -0.829
UACCAGCAAUAUUACGUAAA -0.408
UCUAAGCAAUAUUACGUCUC -3.38

Next item in the queue.
Exercise: Entry CACCAGCAAUAUUACGCUGC has what self-splicing fitness (ln)?
Solution: -2

----------
- assay_explanation: self-splicing fitness, log relative to wild type (ln ratio); higher = more splicing; Tetrahymena group I intron in knt gene, E. coli kanamycin selection, DiMSum; sequences stand for … in CUCUCU…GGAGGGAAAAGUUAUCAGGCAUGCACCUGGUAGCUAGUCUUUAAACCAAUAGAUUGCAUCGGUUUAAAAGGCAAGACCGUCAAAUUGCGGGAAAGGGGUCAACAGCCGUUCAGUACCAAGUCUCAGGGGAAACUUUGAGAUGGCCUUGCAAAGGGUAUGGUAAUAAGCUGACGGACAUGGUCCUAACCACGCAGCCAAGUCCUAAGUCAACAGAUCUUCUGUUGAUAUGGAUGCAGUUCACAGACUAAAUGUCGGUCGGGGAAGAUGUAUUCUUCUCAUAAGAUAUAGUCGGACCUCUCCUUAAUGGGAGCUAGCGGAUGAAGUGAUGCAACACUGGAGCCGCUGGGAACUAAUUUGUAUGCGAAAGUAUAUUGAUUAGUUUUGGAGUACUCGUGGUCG
- measurement_parameters: 37 °C
Everything with self-splicing fitness (ln) lower than -1 is label 0; everything else, including exactly -1, is label 1.

GACGAGCAAUAUUACGUCAU label 0

Exercise: Tell me whether self-splicing fitness (ln) is at least -1 here: GUGGAGCAAUAUUACGCCUU
Solution: label 0

Exercise: Is the recorded value of self-splicing fitness (ln) equal to or greater than -1 for this sequence? CGAGAGCAAUAUUACGGGAA
Solution: label 0

Exercise: Check if self-splicing fitness (ln) >= -1 (inclusive). Item: GAAAAGCAAUAUUACGGGUG
Solution: label 0

Exercise: Is reported self-splicing fitness (ln) greater than or equal to -1 here: GUGUAGCAAUAUUACGAGAC
Solution: label 0

Exercise: API: above_or_equal(metric=self-splicing fitness (ln), cutoff=-1) for item CUUGAGCAAUAUUACGUGAG
Solution: label 0

Exercise: State whether the measured self-splicing fitness (ln) reaches -1, counting equality as reaching it, for AACAAGCAAUAUUACGAGGC
Solution: label 0

Exercise: Item UGGUAGCAAUAUUACGUCAU with self-splicing fitness (ln) of -1 or above?
Solution: label 0

Exercise: # bool: self-splicing fitness (ln) of AAUAAGCAAUAUUACGUAUC >= -1
Solution: label 0

Exercise: Has AGCUAGCAAUAUUACGGUAG a recorded self-splicing fitness (ln) greater than or equal to -1?
Solution: label 0

Exercise: # bool: self-splicing fitness (ln) of UCUUAGCAAUAUUACGCUGU >= -1
Solution: label 0

Exercise: self-splicing fitness (ln) >= -1 for CAACAGCAAUAUUACGGGGG ?
Solution: label 0

Exercise: Could you please find out whether AUAUAGCAAUAUUACGCUUU has self-splicing fitness (ln) that meets -1 or exceeds it?
Solution: label 0

Exercise: Check the entry AUUGAGCAAUAUUACGUAUA : does self-splicing fitness (ln) equal or exceed -1?
Solution: label 0

----------
- assay_explanation: self-splicing fitness, log relative to wild type (ln ratio); higher = more splicing; Tetrahymena group I intron in knt gene, E. coli kanamycin selection, DiMSum; sequences stand for … in CUCUCU…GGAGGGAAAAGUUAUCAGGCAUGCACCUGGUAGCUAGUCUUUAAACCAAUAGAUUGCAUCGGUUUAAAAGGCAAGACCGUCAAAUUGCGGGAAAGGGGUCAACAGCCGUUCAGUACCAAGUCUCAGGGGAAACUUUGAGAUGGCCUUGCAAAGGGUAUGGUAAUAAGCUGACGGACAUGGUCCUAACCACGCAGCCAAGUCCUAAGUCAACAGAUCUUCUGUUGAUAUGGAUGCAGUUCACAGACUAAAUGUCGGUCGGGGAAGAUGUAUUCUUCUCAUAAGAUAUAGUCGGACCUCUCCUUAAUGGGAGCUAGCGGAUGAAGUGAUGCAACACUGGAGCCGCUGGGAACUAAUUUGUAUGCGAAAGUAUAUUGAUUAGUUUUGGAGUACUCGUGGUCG
- measurement_parameters: 37 °C
Tag: satisfied if measured self-splicing fitness (ln) is not below -1, not satisfied if it is.

Illustrative cases are given below, each with its answer.
GUGCAGCAAUAUUACGUGAC not satisfied
GUACAGCAAUAUUACGUGAG satisfied
CCGUAGCAAUAUUACGGUGU not satisfied
ACGCAGCAAUAUUACGGUGA satisfied
GACGAGCAAUAUUACGUCCA not satisfied

# input for lookup
Exercise: Hello, I need to know if UUAAAGCAAUAUUACGAGGG has measured self-splicing fitness (ln) not below -1. Thanks!
Solution: not satisfied

----------
- assay_explanation: self-splicing fitness, log relative to wild type (ln ratio); higher = more splicing; Tetrahymena group I intron in knt gene, E. coli kanamycin selection, DiMSum; sequences stand for … in CUCUCU…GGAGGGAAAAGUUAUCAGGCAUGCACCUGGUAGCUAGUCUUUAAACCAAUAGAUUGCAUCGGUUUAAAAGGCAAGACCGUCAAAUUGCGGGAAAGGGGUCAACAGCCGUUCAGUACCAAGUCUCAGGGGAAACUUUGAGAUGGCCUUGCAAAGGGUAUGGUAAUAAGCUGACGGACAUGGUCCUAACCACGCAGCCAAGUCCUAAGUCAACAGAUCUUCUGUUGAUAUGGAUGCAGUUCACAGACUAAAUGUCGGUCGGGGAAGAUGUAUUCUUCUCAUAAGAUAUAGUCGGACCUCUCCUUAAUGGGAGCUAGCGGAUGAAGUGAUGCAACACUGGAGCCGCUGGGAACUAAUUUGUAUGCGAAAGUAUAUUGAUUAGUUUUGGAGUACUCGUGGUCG
- measurement_parameters: 30 °C
Measured self-splicing fitness (ln), listed per entry.
Note: the reply should be a number with no unit written.

Guide cases for self-splicing fitness (ln), answers given:
UUAAAGCAAUAUUACGUAGC -4.43
AAAGAGCAAUAUUACGUUAG -3.49

Exercise: Which self-splicing fitness (ln) value is on record for ACGCAGCAAUAUUACGCGUG ?
Solution: -3.43

Exercise: Data request, read-out self-splicing fitness (ln), for GCGAAGCAAUAUUACGCAAU
Solution: -3.2

Exercise: Fill blank: measured self-splicing fitness (ln) of the sequence GGCUAGCAAUAUUACGAGCU is ____.
Solution: -2.9

Exercise: Fill blank: measured self-splicing fitness (ln) of the sequence GCUAAGCAAUAUUACGCGCG is ____.
Solution: -0.427

Exercise: Report self-splicing fitness (ln) for GUACAGCAAUAUUACGCCGC please.
Solution: -3.01

Exercise: Form field: reported self-splicing fitness (ln) of GAUUAGCAAUAUUACGCCGG
Solution: -2.88

Exercise: Reported self-splicing fitness (ln), sequence AUGAAGCAAUAUUACGCAUC : ____
Solution: -4.84

The reported numbers originate from the supplement of paper PMC7877785.
